Target: human HER3 endogenously expressed on human cancer cells (SK-Br-3, BT-474, MCF7) (human, UniProt P21860 20-1342)
Test: cell-based or functional assay
The following binders are shown together with reported SK-Br-3 proliferation % inhibition values.
The reply should contain only the number, in %.

The following binders have reported results that may help.
MOR12920 (antibody, human IgG1, lambda, V domains shown) VH: QVQLVQSGAEVKKPGASVKVSCKASGYTFTGYYMHWVRQAPGQGLEWMGDIEPYHGKPLYAQKFQGRVTMTRDTSISTAYMELSRLRSEDTAVYYCARGSFYTRDSYFDVWGQGTLVTVSS VL: DIALTQPASVSGSPGQSITISCTGTSSDVGTYNQVSWYQQHPGNAPKLMIYGVSKRPSGVSNRFSGSKSGNTASLTISGLQAEDEADYYCSSRDLIGHYVFGGGTKLTVLG :: 32
MOR12515 (antibody, human IgG1, lambda, V domains shown, Tested as IgG) VH: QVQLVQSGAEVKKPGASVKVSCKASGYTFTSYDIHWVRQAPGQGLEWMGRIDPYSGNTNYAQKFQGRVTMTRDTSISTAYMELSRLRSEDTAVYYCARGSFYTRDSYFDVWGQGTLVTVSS VL: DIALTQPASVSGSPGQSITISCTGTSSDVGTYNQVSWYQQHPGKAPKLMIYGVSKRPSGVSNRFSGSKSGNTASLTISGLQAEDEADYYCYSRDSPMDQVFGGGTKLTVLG :: 36
MOR14533 (antibody, human IgG1, kappa, V domains shown, Tested as IgG) VH: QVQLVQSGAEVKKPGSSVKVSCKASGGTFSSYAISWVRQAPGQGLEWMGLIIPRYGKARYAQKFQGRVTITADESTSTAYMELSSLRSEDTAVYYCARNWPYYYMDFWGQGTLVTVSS VL: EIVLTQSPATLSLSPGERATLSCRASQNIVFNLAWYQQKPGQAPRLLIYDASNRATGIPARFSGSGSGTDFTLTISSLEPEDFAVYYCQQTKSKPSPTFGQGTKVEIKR :: 46

What the record says about MOR12606 (antibody, human IgG1, kappa, V domains shown, Tested as IgG) VH: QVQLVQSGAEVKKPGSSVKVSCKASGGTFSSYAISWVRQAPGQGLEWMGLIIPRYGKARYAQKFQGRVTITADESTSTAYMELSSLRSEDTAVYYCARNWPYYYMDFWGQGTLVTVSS VL: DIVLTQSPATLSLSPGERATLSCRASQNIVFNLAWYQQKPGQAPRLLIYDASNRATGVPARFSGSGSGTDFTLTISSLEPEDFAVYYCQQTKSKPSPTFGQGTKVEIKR : SK-Br-3 proliferation % inhibition is 36

The reported numbers originate from patent US20130251703A1.
